Test system: DeltatarO mutant
Assay method text: S. aureus survival, RN4220 and DeltatarO strains – OD600, teichoic acid synthesis inhibitors, primary screen (AID 463173)
Measurement context: S. aureus RN4220 wild type/DeltatarO growth, OD600, 18 h, screened at 18.75 µg/mL (by protocol)
Among all 52,000 compounds or so, about 4,300 (8.3%) were called active. No stated cut-off is given here; in the data, active means survival mostly below about 52% (no sharp cut-off); inactive means mostly above about 56%. For the sample, actives were picked, then their nearest neighbours and some compounds at random.
Give your call using only these classes: active, inactive

[Q] Just curious, what result did COc1ccc(CC2C(=O)Nc3ccc(Br)cc32)cc1OC (stereo not given) get here?
[A] inactive

[Q] Call for entry CCCCOc1ccccc1CC1C(=O)Nc2ccc(Br)cc21 (stereo not given) :
[A] active

[Q] Any idea what this test logged for COc1ccc(Cn2c(SCC(=O)Nc3ccc(OC)cc3)nc3ccccc32)cc1 ?
[A] inactive

[Q] Fill in: this test's call for Cc1ccc(CN(C(=O)COc2ccc(Cl)c(C)c2)c2ccccn2)o1 is ___
[A] inactive

[Q] Fill in: this test's call for COCCn1c(C)cc(O)c(C(c2ccccc2)N2CCN(C)CC2)c1=O (stereo not given) is ___
[A] inactive

[Q] Look up the recorded call for CCOc1cc(Cn2c(-c3ccc(O)c(OCC)c3)nc3ccccc32)ccc1O in this test.
[A] inactive

[Q] Outcome logged for O=C(Nc1ccc(NC(=O)C2CC2)nc1)c1cccc(F)c1 in this assay:
[A] inactive

[Q] Recorded call for CC(C)(C)OC(=O)N1CCC(c2c(C(=O)NCc3ccccc3)cnn2-c2cccc(F)c2)CC1 ?
[A] inactive

[Q] Kindly provide the recorded test outcome for the following compound: CC1Cc2ccccc2N1S(=O)(=O)c1nnc(NC(=O)c2ccccc2Br)s1 (stereo not given)
[A] active

[Q] Hi team, can someone confirm the assay call for COc1cc(C(=O)Oc2c(Sc3ccc(C)cc3)c(C)nn2-c2ccccc2)cc(OC)c1OC ?
[A] inactive

[Q] Test call for this compound, please: COc1ccc(Cn2c(SCC(=O)NCc3ccccc3)nc3ccccc32)cc1
[A] inactive

[Q] Tell me the recorded outcome of this test for COC(=O)c1ccc(CSc2nc3c(c(=O)[nH]2)CCC3)cc1 .
[A] inactive

[Q] How was Cc1cc(NC(=O)C2C3C(=O)N(c4ccccc4Cl)C(C(=O)NC(C)(C)C)C34C=CC2(C)O4)no1 (stereo not given) classified in this test?
[A] inactive

[Q] Which outcome did this test record for the compound Cc1ccc2c(c1)CC(C)N2S(=O)(=O)c1nnc(NC(=O)C(C)C)s1 (stereo not given) ?
[A] inactive

[Q] What call does the record list for COCCn1c(C)cc(O)c(C(c2cccc(F)c2)N2CCN(c3ccccc3)CC2)c1=O (stereo not given) ?
[A] inactive

---

Test system: DeltatarO mutant
Assay method text: S. aureus survival, RN4220 and DeltatarO strains – OD600, teichoic acid synthesis inhibitors, primary screen (AID 463173)
Measurement context: S. aureus RN4220 wild type/DeltatarO growth, OD600, 18 h, active compounds read low, screened at 18.75 µg/mL (by protocol)
About 4,300 (8.3%) of roughly 52,000 compounds were called active. The list comes from a sample in which actives are over-represented; it also holds close analogues and randomly drawn compounds.
Record form. Attribute: survival. Fill in for each entry.
Please give a number only; it is taken to be in %.

[Q] Return the recorded survival value; entry: Cn1c(=O)c2c(nc(Oc3ccccc3)n2Cc2c(Cl)cccc2Cl)n(C)c1=O
[A] 84

[Q] In one line, give reported survival of the entry COc1ccc(C(=O)CC2(O)C(=O)N(Cc3ccccc3)c3ccc(Br)cc32)cc1 (stereo not drawn) .
[A] 50

[Q] Given the compound CCCCN1C(=O)C(O)(CC(=O)c2ccc(CC)cc2)c2cc(Br)ccc21 (stereo not drawn) , write its reported survival.
[A] 32

[Q] Tell me measured survival for CC1=C(C)CC(C(=O)Nc2ccc(NC(=O)NC3CCCCC3)cc2)C(C(=O)O)C1 (stereo not drawn) please.
[A] 81

[Q] Specify measured survival for COc1ccc(C(=O)Nc2nnc(S(=O)(=O)N3CCCCCC3)s2)cc1OC .
[A] 80

[Q] Look up and report measured survival for this entry: COc1cccc(C(=O)CC2(O)C(=O)N(Cc3ccccc3)c3ccccc32)c1 (stereo not drawn)
[A] 175

[Q] Tell me its survival given CCCN1C(=O)C(O)(CC(=O)c2ccc(OC)c(OC)c2)c2ccccc21 (stereo not drawn) as the entry.
[A] 146

[Q] Dear colleague, please send me the reported survival for CCCCNc1nc2c(c(=O)n(Cc3ccc(Cl)cc3)c(=O)n2C)n1C when you can.
[A] 56

[Q] Please give measured survival of the following entry: CCS(=O)(=O)Nc1ccc2[nH]c(=O)[nH]c2c1
[A] 88

[Q] Entry COc1ccc(C(=O)Nc2ccccc2C(=O)Nc2ccccn2)cc1 needs its survival filled in; supply it.
[A] 94

[Q] Give the value of survival reported for the following: COc1cccc(Cn2c(Oc3cc(C)cc(C)c3)nc3c2c(=O)n(C)c(=O)n3C)c1
[A] 31

[Q] Entry COc1cc2c(C(=O)Nc3cc(OC)c(OC)c(OC)c3)cn(C)c(=O)c2cc1OC needs its survival filled in; supply it.
[A] 63

[Q] Give the value of survival reported for the following: O=C(Nc1nnc(S(=O)(=O)N2CCOCC2)s1)c1ccc(F)cc1
[A] 78

[Q] Give survival for Cc1cn2c(=O)cc(COC(=O)c3cccc(NC(=O)C(C)Oc4ccccc4)c3)nc2s1 (stereo not drawn)
[A] 95

[Q] Indicate the recorded survival value for this compound: Cc1cn2c(=O)cc(COC(=O)c3cccc(NC(=O)c4ccc(C(C)(C)C)cc4)c3)nc2s1
[A] 103

[Q] Please indicate survival recorded for CCc1cccc(NC(=O)c2ccc(CN3C(=O)C(C)=C(c4ccc(OC)cc4)S3(=O)=O)cc2)c1
[A] 71

[Q] Retrieve survival measured for CCOC(=O)c1c(-c2ccccc2)oc2ccc(NS(=O)(=O)c3ccc(OC)cc3)cc12 and print it.
[A] 60

[Q] Fill in survival for record CCCCOC(=O)c1c(C)oc2ccc(NS(=O)(=O)c3ccc(F)cc3C)cc12
[A] 10

[Q] Output survival of CCOC(=O)c1c(-c2ccccc2)oc2ccc(NS(=O)(=O)c3ccc(C)cc3)cc12
[A] 83

[Q] Report survival, nothing else, for this compound: CCOC(=O)c1c(-c2ccccc2)oc2ccc(NS(=O)(=O)c3ccccc3)cc12
[A] 35

[Q] Dear colleague, please send me the reported survival for CCCCN1C(=O)C(O)(CC(=O)c2ccc(C)cc2C)c2cc(Br)ccc21 (stereo not drawn) when you can.
[A] 11

[Q] Report survival, nothing else, for this compound: Cc1oc(-c2ccc(C(=O)N(C)Cc3ccccc3)cc2)nc1CN1CCc2ccccc21
[A] 119

[Q] Output survival of COc1cccc(Cn2c(NCc3ccc(C)cc3)nc3c2c(=O)n(C)c(=O)n3C)c1
[A] 79

[Q] Tell me survival reported for COc1ccccc1N1CCN(C(=O)C(CCSC)NS(=O)(=O)c2ccc3c(c2)oc(=O)n3C)CC1 (stereo not drawn)
[A] 87

[Q] Item CCCCNc1nc2c(c(=O)n(Cc3ccc(Cl)c(Cl)c3)c(=O)n2C)n1C : provide survival
[A] -10

[Q] Output survival of COc1cccc(C(=O)Nc2nc3ccc(S(=O)(=O)N4CCCC4)cc3s2)c1
[A] 79

[Q] Please report survival for the following compound: Cc1ccc(CN2C(=O)C(O)(CC(=O)c3ccc(C)cc3)c3ccccc32)cc1 (stereo not drawn)
[A] 65

[Q] Determine its reported survival: CCN(CC)c1nc(OCC(F)(F)F)nc(N(c2ccccc2)c2ccccc2)n1
[A] 76

[Q] Report survival, nothing else, for this compound: Cc1cn2c(=O)cc(COC(=O)c3ccc(NC(=O)c4ccc(C(C)(C)C)cc4)cc3)nc2s1
[A] 20

[Q] Write down survival measured for item Cc1cccc(Oc2nc3c(c(=O)n(C)c(=O)n3C)n2C)c1
[A] 123

[Q] Entry O=C(CC1(O)C(=O)N(Cc2ccccc2)c2ccc(Br)cc21)c1ccccc1 (stereo not drawn) needs its survival filled in; supply it.
[A] 99

[Q] Could you please provide reported survival for CCCCNC(=O)CN1CCN(c2ncc(NC(=O)c3ccc(Cl)cc3)cc2C(=O)O)CC1 ? Thanks!
[A] 94

[Q] Identify the reported survival for the following entry. Cc1cccc(C(=O)Nc2nnc(S(=O)(=O)N3CCOCC3)s2)c1
[A] 58

---

System: DeltatarO mutant
Assay method text: S. aureus survival, RN4220 and DeltatarO strains – OD600, teichoic acid synthesis inhibitors, primary screen (AID 463173)
Measurement context: S. aureus RN4220 wild type/DeltatarO growth, OD600, 18 h, active compounds read low, screened at 18.75 µg/mL (by protocol)
Among all 52,000 compounds or so, about 4,300 (8.3%) were called active. The full list was thinned out, with actives kept by preference.
Give survival for every item shown.
Output spec: scalar in %, unitless text.

[Q] // Input: COc1ccc(NC(=O)CSc2n[nH]c(-c3ccccc3)n2)cc1Cl . Output its survival only.
[A] 88

[Q] Give reported survival value for CSc1cccc(NC(=O)Cn2ncn3c(cc4ccccc43)c2=O)c1
[A] 65

[Q] Identify the reported survival for the following entry. CSc1ccc(CCNC(=O)c2cnc3c(C)cccn3c2=O)cc1
[A] 89

[Q] Using known records, supply survival for CCOC(=O)N1CCc2c(sc3c2c(=O)n(Cc2ccccc2)c(=O)n3Cc2cccc(C)c2)C1
[A] 83

[Q] Hello, please tell me recorded survival for this one: Cc1ccc(Nc2c(-c3cccnc3)nc3ccc(Cl)cn23)cc1
[A] 83

[Q] Give recorded survival. Cc1ccc(CSc2nc(N)cc(N)n2)cc1
[A] 114

[Q] For the compound Cc1cccc(N2CCN(CCCNC(=O)c3sc4ncccc4c3-n3cccc3)CC2C)c1 (stereo unspecified) , report survival.
[A] 105

[Q] Quick one: give measured survival for COc1ccccc1-c1nc(SCC(=O)c2ccccc2)n[nH]1
[A] 53

[Q] Identify the reported survival for the following entry. CCc1ccc(OC(=O)c2sc3ncn(Cc4cccc(F)c4)c(=O)c3c2C)cc1
[A] 115

[Q] Name the recorded survival of the compound listed here: Cn1c(=O)nc2n(-c3ccc(Cl)c(Cl)c3)c3cc(Cl)ccc3cc-2c1=O
[A] 87

[Q] Report measured survival; entry is COc1ccccc1-c1nc(SCC(=O)c2ccc(Cl)cc2)n[nH]1
[A] 175
